FYI, the data here is from the Immune Epitope Database (IEDB).

Biological target: HLA-A*02:01
Assay: IEDB peptide-MHC binding, purified MHC/competitive/fluorescence; filed as Kd, often an IC50 or EC50 that approximates it; bounds were set here for any values at or beyond the usual limits of such assays
Conditions: source organism: Variola virus
MEASUREMENT TYPE: pKd
One number for each entry, as −log10 of the molar value.

Qu. // returns reported pKd for input QIFNIISYI
Ans. 7.51

* * *

Target: HLA-A*11:01
Experiment: IEDB peptide-MHC binding, purified MHC/direct/fluorescence; filed as Kd, often an IC50 or EC50 that approximates it; bounds were set here for any values at or beyond the usual limits of such assays
Details: source organism: Yellow fever virus
MEASUREMENT TYPE: pKd
Numbers only, as −log10 of the molar value.

Qu. Test system HLA-A*11:01; read-out pKd; what value for TINAVASRK ?
Ans. 8.37

* * *

Target: HLA-A*01:01
Assay: IEDB peptide-MHC binding, purified MHC/competitive/radioactivity; bounds were set here for any values at or beyond the usual limits of such assays
Conditions: source organism: Rhinovirus A
MEASUREMENT TYPE: pIC50
Numbers only, as −log10 of the molar value.

Qu. // returns reported pIC50 for input YGDDVIFSY
Ans. 6.70

* * *

Biological target: HLA-A*31:01
Assay: IEDB peptide-MHC binding, purified MHC/direct/fluorescence; filed as Kd, often an IC50 or EC50 that approximates it; bounds were set here for any values at or beyond the usual limits of such assays
Details: source organism: Marburg virus - Musoke, Kenya, 1980
MEASUREMENT TYPE: Kd

Qu. Test system HLA-A*31:01; read-out Kd; what value for YLAPSYRNF ?
Ans. ≥ 20 µM

* * *

Target: HLA-A*69:01
Experiment: IEDB peptide-MHC binding, purified MHC/direct/fluorescence; filed as Kd, often an IC50 or EC50 that approximates it; bounds were set here for any values at or beyond the usual limits of such assays
Details: source organism: West Nile virus
Exercise: for every item that follows, state its recorded Kd.

CHAIN SEQUENCE	STUDY SYSTEM	Kd
KIRNRIERL	HLA-A*69:01	≥ 20 µM

Qu. // returns reported Kd for input YCPGTTVTL
Ans. ≥ 20 µM

* * *

Biological target: HLA-A*02:01
Experiment: IEDB peptide-MHC binding, purified MHC/competitive/radioactivity; filed as Kd, often an IC50 or EC50 that approximates it; bounds were set here for any values at or beyond the usual limits of such assays
Conditions: source organism: Lassa virus Josiah
MEASUREMENT TYPE: Kd (µM)
Give bare numbers, in µM.

Worked examples, 2 sequences total:
CHAIN SEQUENCE	OUTPUT UNIT	Kd
DLFATQPGL	µM	12.5
NMETLNMTM	µM	1.39

// moving on: another record for Kd
Qu. // returns reported Kd for input ELTLTNTSI
Ans. 12.5

* * *

Target: HLA-B*58:01
Test: IEDB peptide-MHC binding, purified MHC/direct/fluorescence; filed as Kd, often an IC50 or EC50 that approximates it; bounds were set here for any values at or beyond the usual limits of such assays
Conditions: source organism: Influenza A virus (A/G.H/HK/793.1/02 (H5N1))
MEASUREMENT TYPE: Kd

Qu. // returns reported Kd for input RRKTNLYGF
Ans. ≥ 20 µM

* * *

Biological target: HLA-B*15:01
Test: IEDB peptide-MHC binding, purified MHC/direct/fluorescence; filed as Kd, often an IC50 or EC50 that approximates it; bounds were set here for any values at or beyond the usual limits of such assays
Conditions: source organism: Camelpox virus M-96
pKd: −log10 of the molar value.
MEASUREMENT TYPE: pKd

Qu. // returns reported pKd for input IFLIITKVF
Ans. ≤ 4.70

* * *

Exercise: for every item that follows, state its recorded pKd.
Target: HLA-B*53:01
Assay: IEDB peptide-MHC binding, purified MHC/competitive/radioactivity; filed as Kd, often an IC50 or EC50 that approximates it; bounds were set here for any values at or beyond the usual limits of such assays
Conditions: source organism: Dengue virus 1 Brazil/97-11/1997
Answers are plain numbers, as −log10 of the molar value.

CHAIN SEQUENCE	pKd
FVTNEVHTW	7.21

// moving on: another record for pKd
Qu. // returns reported pKd for input FGIFTTNIW
Ans. 6.77

* * *

Target: HLA-B*35:01
Assay: IEDB peptide-MHC binding, purified MHC/competitive/fluorescence; filed as Kd, often an IC50 or EC50 that approximates it; bounds were set here for any values at or beyond the usual limits of such assays
Settings: source organism: West Nile virus
MEASUREMENT TYPE: Kd (nM)
Answers are plain numbers, in nM.

Qu. // returns reported Kd for input LAVSAYTPW
Ans. 5.7

* * *

Target: HLA-B*08:01
Assay: IEDB peptide-MHC binding, purified MHC/competitive/radioactivity; filed as Kd, often an IC50 or EC50 that approximates it; bounds were set here for any values at or beyond the usual limits of such assays
Details: source organism: Dengue virus 4 Dominica/814669/1981
MEASUREMENT TYPE: pKd
Answers are plain numbers, as −log10 of the molar value.

Qu. // returns reported pKd for input MLIPKSYAG
Ans. 6.94

* * *

Exercise: for every item that follows, state its recorded pKd.
Molecular target: HLA-B*08:01
Assay: IEDB peptide-MHC binding, purified MHC/direct/fluorescence; filed as Kd, often an IC50 or EC50 that approximates it; bounds were set here for any values at or beyond the usual limits of such assays
Conditions: source organism: Coxiella burnetii
pKd: −log10 of the molar value.

CHAIN SEQUENCE	pKd
YHFDPVHHL	≤ 4.70

// moving on: another record for pKd
Qu. // returns reported pKd for input PEIRRWIIF
Ans. ≤ 4.70

* * *

Biological target: HLA-A*24:03
Experiment: IEDB peptide-MHC binding, purified MHC/direct/fluorescence; filed as Kd, often an IC50 or EC50 that approximates it; bounds were set here for any values at or beyond the usual limits of such assays
Settings: source organism: Salmonella enterica
pKd: −log10 of the molar value.
MEASUREMENT TYPE: pKd

Qu. // returns reported pKd for input LLQGVPFHV
Ans. ≤ 4.70

* * *

Exercise: for every item that follows, state its recorded pKd.
Target: HLA-A*69:01
Assay: IEDB peptide-MHC binding, purified MHC/direct/fluorescence; filed as Kd, often an IC50 or EC50 that approximates it; bounds were set here for any values at or beyond the usual limits of such assays
Conditions: source organism: Marburg virus - Musoke, Kenya, 1980
One number for each entry, as −log10 of the molar value.

CHAIN SEQUENCE	STUDY SYSTEM	pKd
FLLDYEGTL	HLA-A*69:01	6.36

Qu. // returns reported pKd for input VMNPLGLNV
Ans. 6.11

* * *

Biological target: HLA-A*02:01
Assay: IEDB peptide-MHC binding, purified MHC/direct/fluorescence; filed as Kd, often an IC50 or EC50 that approximates it; bounds were set here for any values at or beyond the usual limits of such assays
Details: source organism: Influenza A virus (A/swine/Korea/S190/2004(H9N2))
MEASUREMENT TYPE: Kd

Qu. Test system HLA-A*02:01; read-out Kd; what value for WIPKRNRSI ?
Ans. ≥ 20 µM

* * *

Biological target: HLA-B*35:01
Test: IEDB peptide-MHC binding, purified MHC/direct/fluorescence; filed as Kd, often an IC50 or EC50 that approximates it; bounds were set here for any values at or beyond the usual limits of such assays
Settings: source organism: Escherichia coli O157:H7
MEASUREMENT TYPE: Kd (nM)
One number for each entry, in nM.

Qu. // returns reported Kd for input ADLRFASEF
Ans. 937

* * *

Target: HLA-A*03:01
Test: IEDB peptide-MHC binding, purified MHC/direct/fluorescence; filed as Kd, often an IC50 or EC50 that approximates it; bounds were set here for any values at or beyond the usual limits of such assays
Conditions: source organism: Bacillus anthracis
MEASUREMENT TYPE: Kd

Qu. // returns reported Kd for input VTECKLIYY
Ans. ≥ 20 µM

* * *

Target: HLA-A*30:02
Experiment: IEDB peptide-MHC binding, purified MHC/competitive/radioactivity; filed as Kd, often an IC50 or EC50 that approximates it; bounds were set here for any values at or beyond the usual limits of such assays
Settings: source organism: Mammarenavirus guanaritoense
MEASUREMENT TYPE: Kd (nM)
One number for each entry, in nM.

Qu. // returns reported Kd for input LFDVIPVSY
Ans. 1910

* * *

Molecular target: HLA-B*35:01
Assay: IEDB peptide-MHC binding, purified MHC/competitive/fluorescence; filed as Kd, often an IC50 or EC50 that approximates it; bounds were set here for any values at or beyond the usual limits of such assays
Conditions: source organism: Mammarenavirus lassaense
MEASUREMENT TYPE: Kd
# include the unit after the value

Qu. // returns reported Kd for input VPHVIEEVM
Ans. 0.2 nM
